Reference source: ChEMBL document CHEMBL3758092

Here, each record is paired with measured concentration at 6 h data.
# METHOD NOTES: Drug uptake in rat at 10 mg/kg, po liver after 6 hrs
# Format: ADME, organism-based
# CONDITION SET: read-out: Drug uptake
Only the number, expressed in µM, is required.

CCCS(=O)(=O)NC(=O)c1ccc2c(C3CCCCC3)c3n(c2c1)CC1(C(=O)N2C4CCC2CN(C)C4)CC1c1cc(OC)ccc1-3 (racemic)	13.1

// recorded concentration at 6 h for COc1ccc2c(c1)C1CC1(C(=O)N1C3CCC1CN(C)C3)Cn1c-2c(C2CCCCC2)c2ccc(C(=O)NS(=O)(=O)C(C)C)cc21 (racemic) : 26.2

// recorded concentration at 6 h for COc1ccc2c(c1)C1CC1(C(=O)N1C3CCC1CN(C)C3)Cn1c-2c(C2CCCCC2)c2ccc(C(=O)NS(=O)(=O)CC(C)C)cc21 (racemic) : 88.3

###

# METHOD NOTES: Half life in cynomolgus monkey liver microsomes
# Assay type: ADME, Macaca fascicularis
Here, each record is paired with measured half-life data.
Only the number, expressed in min, is required.

COc1ccc2c(c1)C1CC1(C(=O)N1C3CCC1CN(C)C3)Cn1c-2c(C2CCCCC2)c2ccc(C(=O)NS(=O)(=O)CC3CCC3)cc21 (racemic)	9

// recorded half-life for COc1ccc2c(c1)C1CC1(C(=O)N1C3CCC1CN(C)C3)Cn1c-2c(C2CCCCC2)c2ccc(C(=O)NS(=O)(=O)C3CCCC3)cc21 (racemic) : 18.2

// recorded half-life for CCC(C)S(=O)(=O)NC(=O)c1ccc2c(C3CCCCC3)c3n(c2c1)CC1(C(=O)N2C4CCC2CN(C)C4)CC1c1cc(OC)ccc1-3 (racemic) : 38

###

# METHOD NOTES: Half life in human liver microsomes
# Format: ADME
Here, each record is paired with measured log10 half-life data.
The figures below represent log10 of half-life, where half-life is stated in h.

Worked cases, log10 half-life given:
CCC(C)S(=O)(=O)NC(=O)c1ccc2c(C3CCCCC3)c3n(c2c1)CC1(C(=O)N2C4CCC2CN(C)C4)CC1c1cc(OC)ccc1-3 (racemic)	-0.52
COc1ccc2c(c1)C1CC1(C(=O)N1C3CCC1CN(C)C3)Cn1c-2c(C2CCCCC2)c2ccc(C(=O)NS(=O)(=O)CC3CCC3)cc21 (racemic)	-0.12
COc1ccc2c(c1)[C@@H]1C[C@]1(C(=O)N1C3CCC1CN(C)C3)Cn1c-2c(C2CCCCC2)c2ccc(C(=O)NS(=O)(=O)C3CCC3)cc21	0.07
COc1ccc2c(c1)C1CC1(C(=O)N1C3CCC1CN(C)C3)Cn1c-2c(C2CCCCC2)c2ccc(C(=O)NS(C)(=O)=O)cc21 (racemic)	0.47
CCCCS(=O)(=O)NC(=O)c1ccc2c(C3CCCCC3)c3n(c2c1)CC1(C(=O)N2C4CCC2CN(C)C4)CC1c1cc(OC)ccc1-3 (racemic)	0.09

// recorded log10 half-life for COc1ccc2c(c1)C1CC1(C(=O)N1C3CCC1CN(C)C3)Cn1c-2c(C2CCCCC2)c2ccc(C(=O)NS(=O)(=O)CC(C)(C)C)cc21 (racemic) : -0.10

// recorded log10 half-life for COc1ccc2c(c1)C1CC1(C(=O)N1C3CCC1CN(C)C3)Cn1c-2c(C2CCCCC2)c2ccc(C(=O)NS(=O)(=O)CC3CC3)cc21 (racemic) : 0.52

// recorded log10 half-life for COc1ccc2c(c1)C1CC1(C(=O)N1C3CCC1CN(C)C3)Cn1c-2c(C2CCCCC2)c2ccc(C(=O)NS(=O)(=O)N(C)C)cc21 (racemic) : 0.10

// recorded log10 half-life for CCN(C)S(=O)(=O)NC(=O)c1ccc2c(C3CCCCC3)c3n(c2c1)CC1(C(=O)N2C4CCC2CN(C)C4)CC1c1cc(OC)ccc1-3 (racemic) : -0.34

###

Here, each record is paired with measured remaining at 10 min data.
# METHOD NOTES: in vitro
# CONDITION SET: rat, liver microsomes
# Description: Metabolic stability in rat liver microsomes assessed as compound remaining after 10 mins
Only the number, expressed in %, is required.

COc1ccc2c(c1)[C@@H]1C[C@]1(C(=O)N1C3CCC1CN(C)C3)Cn1c-2c(C2CCCCC2)c2ccc(C(=O)NS(=O)(=O)C3CCC3)cc21	87.8
COc1ccc2c(c1)C1CC1(C(=O)N1C3CCC1CN(C)C3)Cn1c-2c(C2CCCCC2)c2ccc(C(=O)NS(=O)(=O)N3CCC3)cc21 (racemic)	100
CCN(C)S(=O)(=O)NC(=O)c1ccc2c(C3CCCCC3)c3n(c2c1)CC1(C(=O)N2C4CCC2CN(C)C4)CC1c1cc(OC)ccc1-3 (racemic)	94
COc1ccc2c(c1)[C@@H]1C[C@]1(C(=O)N1[C@@H]3CC[C@H]1CN(C)C3)Cn1c-2c(C2CCCCC2)c2ccc(C(=O)NS(=O)(=O)N(C)C)cc21	100

// recorded remaining at 10 min for COc1ccc2c(c1)C1CC1(C(=O)N1C3CCC1CN(C)C3)Cn1c-2c(C2CCCCC2)c2ccc(C(=O)NS(=O)(=O)N(C)C)cc21 (racemic) : 100

// recorded remaining at 10 min for COc1ccc2c(c1)[C@@H]1C[C@]1(C(=O)N1C3CCC1CN(C)C3)Cn1c-2c(C2CCCCC2)c2ccc(C(=O)NS(=O)(=O)CC(C)C)cc21 : 100

###

# SYSTEM: Voltage-gated inwardly rectifying potassium channel KCNH2 (Homo sapiens)
# Sequence (Q12809 whole entry): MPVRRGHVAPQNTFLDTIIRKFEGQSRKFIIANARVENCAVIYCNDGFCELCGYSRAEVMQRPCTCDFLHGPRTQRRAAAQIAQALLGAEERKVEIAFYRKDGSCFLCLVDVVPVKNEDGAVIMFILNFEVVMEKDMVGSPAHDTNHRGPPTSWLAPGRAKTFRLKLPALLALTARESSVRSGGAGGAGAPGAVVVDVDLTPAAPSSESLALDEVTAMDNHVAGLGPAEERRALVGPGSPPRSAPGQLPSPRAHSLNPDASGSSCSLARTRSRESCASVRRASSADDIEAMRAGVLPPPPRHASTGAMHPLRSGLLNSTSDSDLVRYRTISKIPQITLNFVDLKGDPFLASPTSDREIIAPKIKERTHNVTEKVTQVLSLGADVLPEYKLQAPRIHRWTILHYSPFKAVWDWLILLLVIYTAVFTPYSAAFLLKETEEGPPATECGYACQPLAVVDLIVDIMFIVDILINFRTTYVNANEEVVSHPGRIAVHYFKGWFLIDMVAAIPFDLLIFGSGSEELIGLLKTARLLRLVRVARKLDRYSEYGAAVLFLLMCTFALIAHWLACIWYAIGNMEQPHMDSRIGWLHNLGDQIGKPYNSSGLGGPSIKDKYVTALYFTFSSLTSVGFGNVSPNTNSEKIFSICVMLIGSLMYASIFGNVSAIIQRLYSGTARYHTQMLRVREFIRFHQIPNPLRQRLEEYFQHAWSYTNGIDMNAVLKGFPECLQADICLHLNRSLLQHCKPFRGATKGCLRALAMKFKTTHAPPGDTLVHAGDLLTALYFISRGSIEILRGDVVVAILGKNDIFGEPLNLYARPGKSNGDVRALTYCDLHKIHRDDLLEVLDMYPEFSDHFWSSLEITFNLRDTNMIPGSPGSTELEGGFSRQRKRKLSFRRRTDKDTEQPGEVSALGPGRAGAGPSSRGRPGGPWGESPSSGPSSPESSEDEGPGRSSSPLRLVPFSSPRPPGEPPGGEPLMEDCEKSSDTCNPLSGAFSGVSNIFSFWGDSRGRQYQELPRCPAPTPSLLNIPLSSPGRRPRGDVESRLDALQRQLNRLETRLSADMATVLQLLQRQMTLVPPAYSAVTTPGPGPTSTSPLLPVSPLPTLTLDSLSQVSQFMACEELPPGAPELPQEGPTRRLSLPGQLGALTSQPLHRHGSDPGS
# METHOD NOTES: Inhibition of human ERG by FLIPR assay
MEASURE NAME: IC50
In your response, the unit should come after the numeric value.

COc1ccc2c(c1)[C@@H]1C[C@]1(C(=O)N1C3CCC1CN(C)C3)Cn1c-2c(C2CCCCC2)c2ccc(C(=O)NS(=O)(=O)CC(C)C)cc21	16.6 µM

# ---- query molecule ----
// recorded IC50 for COc1ccc2c(c1)[C@@H]1C[C@]1(C(=O)N1[C@@H]3CC[C@H]1CN(C)C3)Cn1c-2c(C2CCCCC2)c2ccc(C(=O)NS(=O)(=O)N(C)C)cc21 [BECLABUVIR] : 26 µM

###

# METHOD NOTES: Half life in human liver microsomes
# Type: ADME
Here, each record is paired with measured half-life data.

Worked cases, half-life given:
COc1ccc2c(c1)C1CC1(C(=O)N1C3CCC1CN(C)C3)Cn1c-2c(C2CCCCC2)c2ccc(C(=O)NS(=O)(=O)C3CCCC3)cc21 (racemic)	> 1 h
COc1ccc2c(c1)C1CC1(C(=O)N1C3CCC1CN(C)C3)Cn1c-2c(C2CCCCC2)c2ccc(C(=O)NS(=O)(=O)C3CCC3)cc21 (racemic)	> 1 h
COc1ccc2c(c1)C1CC1(C(=O)N1C3CCC1CN(C)C3)Cn1c-2c(C2CCCCC2)c2ccc(C(=O)NS(=O)(=O)CC(C)C)cc21 (racemic)	> 1 h

# ---- query compound ----
// recorded half-life for COc1ccc2c(c1)[C@@H]1C[C@]1(C(=O)N1C3CCC1CN(C)C3)Cn1c-2c(C2CCCCC2)c2ccc(C(=O)NS(=O)(=O)CC(C)C)cc21 : > 1.2 h
